B1: CPEB3 Ribozyme (parent)
chain: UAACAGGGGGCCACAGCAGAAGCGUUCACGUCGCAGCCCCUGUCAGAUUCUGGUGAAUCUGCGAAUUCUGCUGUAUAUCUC

- Variants of: B1
- TEST_SUMMARY: self-cleavage, relative activity (ratio to wild type); higher = more cleavage; in vitro, sequencing
Below is a list of entries, each paired with its recorded self-cleavage value.

{"columns": ["SEQUENCE_CHANGE", "self-cleavage"],
 "data": [
  ["A13G", 0.94],
  ["C50A U69A", 0.42],
  ["C32A A57U", 0.2],
  ["A15U U74A", 1.02],
  ["C11A A64U", 0.06],
  ["G33U U72G", 0.28],
  ["A15U U74C", 0.97],
  ["C34U U41C", 0.5],
  ["A5C G9A", 0.41],
  ["U66C U80G", 0.49],
  ["A20U C32U", 0.3],
  ["U41G A45G", 0.25],
  ["G9A U67A", 0.11],
  ["G6C U72A", 0.18],
  ["C4U A28G", 1.03],
  ["A15U U49A", 0.64],
  ["G16C C37U", 0.16],
  ["C23G A56U", 0.4],
  ["C11U U31C", 0.29],
  ["C37U C79U", 1.03],
  ["C40A A64G", 0.12],
  ["G7U U58A", 0.25],
  ["G8A C23U", 0.07],
  ["A15G C68A", 0.2],
  ["G19A C32A", 0.08],
  ["A18U U54A", 0.54],
  ["C38G A64G", 0.2],
  ["C14U C59A", 0.28],
  ["G19A A64G", 0.21]
]}
